Biological target: Wee1 (Homo sapiens)
Experiment: Wee1 pCDK1 activity (known assay)
Type: cell-based
pIC50: −log10 of the molar value.
List of pIC50 values.

1) CCC1(O)CCc2ccc(Nc3nc(Nc4ccc(C5CCN(C)CC5)c(Cl)c4)ncc3C#N)nc21 (stereo not shown) [Example 42] = 6.30 to 6.60
2) CCC1CN(C)CCN1c1ccc(Nc2ncc(C#N)c(Nc3cccc(N4CCCC4=O)n3)n2)cc1 (stereo not shown) [Example 68] = 6.60 to 7.00
3) CCC1(O)CCc2ccc(Nc3nc(Nc4ccc(N5C6CCC5CN(C)C6)cc4)ncc3C#N)nc21 (single isomer, unassigned) [Example 38] = 6.30 to 6.60
4) CCC1(O)CCc2ccc(Nc3nc(Nc4ccc(C5CCNCC5)c(C)c4)ncc3C#N)nc21 (stereo not shown) [Example 18] = 6.30 to 6.60
5) CCCC1(O)CCc2ccc(Nc3nc(Nc4ccc(N5CCN(C)CC5)cc4)ncc3C#N)nc21 (stereo not shown) [Example 2] = ≥ 7.00
6) CCC1(O)CCc2ccc(Nc3nc(Nc4cc(C)c5c(c4)CCN(C)C5)ncc3C#N)nc21 (stereo not shown) [Example 47] = ≥ 7.00

Q: // pIC50 lookup, key: CN1CCc2ccc(Nc3ncc(C#N)c(Nc4cccc(N5CCCC5=O)n4)n3)cc2C1 [Example 74]
Result: 6.60 to 7.00

Q: // pIC50 lookup, key: CCC1(O)CCc2ccc(Nc3nc(Nc4ccc(N5CCN(C)CC5)cc4)ncc3C#N)nc21 (stereo not shown) [Example 15]
Result: 6.30 to 6.60

Q: // pIC50 lookup, key: CCN1CCCc2ccc(Nc3nc(Nc4ccc(N5CCN(C)CC5)cc4)ncc3C#N)nc21 [Example 6]
Result: 6.00 to 6.30

---

List of pIC50 values.
Target: PLK1 (Homo sapiens, UniProt P53350)
Sequence (P53350 whole entry, species assumed): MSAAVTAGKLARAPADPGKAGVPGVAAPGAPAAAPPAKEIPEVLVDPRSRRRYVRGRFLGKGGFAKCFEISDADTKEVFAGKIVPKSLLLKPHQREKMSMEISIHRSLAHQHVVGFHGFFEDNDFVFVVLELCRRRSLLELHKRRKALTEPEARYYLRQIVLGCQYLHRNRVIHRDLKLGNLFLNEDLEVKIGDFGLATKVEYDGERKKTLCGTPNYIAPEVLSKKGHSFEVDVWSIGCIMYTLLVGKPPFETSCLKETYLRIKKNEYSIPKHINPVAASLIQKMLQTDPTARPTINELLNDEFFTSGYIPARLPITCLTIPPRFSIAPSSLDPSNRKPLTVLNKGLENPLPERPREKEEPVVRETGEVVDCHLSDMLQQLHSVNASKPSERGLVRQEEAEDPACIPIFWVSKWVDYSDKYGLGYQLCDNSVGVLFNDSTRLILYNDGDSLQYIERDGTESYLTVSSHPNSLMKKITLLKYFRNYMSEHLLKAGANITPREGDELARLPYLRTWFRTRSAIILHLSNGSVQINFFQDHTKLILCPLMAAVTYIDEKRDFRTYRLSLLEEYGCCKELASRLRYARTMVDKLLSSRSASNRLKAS
pIC50: −log10 of the molar value.

1) CCC1(O)CCc2ccc(Nc3nc(Nc4ccc(N5CCN(C(C)=O)C6(CC6)C5)cc4)ncc3C#N)nc21 (stereo not drawn) = ≥ 7.00
2) CCC1(O)CCc2ccc(Nc3nc(Nc4ccc(N5CCN(C6CC6)CC5)cc4)ncc3C#N)nc21 (stereo not drawn) = ≥ 7.00
3) CCC1(O)CCc2ccc(Nc3nc(Nc4ccc5c(c4)CCN(C)C5(C)C)ncc3C#N)nc21 (single isomer, unassigned) [Example 28] = < 6.00
4) CCC1(O)CCc2ccc(Nc3nc(Nc4ccc(N5C[C@@H](C)N[C@@H](C)C5)cc4)ncc3C#N)nc21 (mixture of isomers) = ≥ 7.00
5) CN1CCc2cc(Nc3ncc(C#N)c(Nc4cccc(N5CCOC5=O)n4)n3)cc(Cl)c2C1 = < 6.00

Q: What pIC50 appears in the records for this molecule with PLK1 (Homo sapiens, UniProt P53350)? CCC1(O)CCc2ccc(Nc3nc(Nc4ccc(N5CCN(C)CC5)cc4)ncc3C#N)nc21 (stereo not drawn)
Result: ≥ 7.00

Q: What pIC50 appears in the records for this molecule with PLK1 (Homo sapiens, UniProt P53350)? CCC1(O)CCCc2ccc(Nc3nc(Nc4ccc(N5CCN(C)CC5)cc4)ncc3C#N)nc21 (stereo not drawn)
Result: ≥ 7.00

Q: What pIC50 appears in the records for this molecule with PLK1 (Homo sapiens, UniProt P53350)? CCC1(O)CCc2ccc(Nc3nc(Nc4ccc(C5CCN(C)CC5)c(C)c4)ncc3C#N)nc21 (single isomer, unassigned) [Example 22]
Result: 6.60 to 7.00

Q: What pIC50 appears in the records for this molecule with PLK1 (Homo sapiens, UniProt P53350)? CN1CCN(c2ccc(Nc3ncc(C#N)c(Nc4ccc5c(n4)C(C)(O)CC5)n3)cc2)CC1 (stereo not drawn)
Result: ≥ 7.00

Q: What pIC50 appears in the records for this molecule with PLK1 (Homo sapiens, UniProt P53350)? CCCC1(O)CCc2ccc(Nc3nc(Nc4ccc(N5CCN(C)CC5)cc4)ncc3C#N)nc21 (stereo not drawn)
Result: ≥ 7.00

Q: What pIC50 appears in the records for this molecule with PLK1 (Homo sapiens, UniProt P53350)? CCC1(O)CCc2ccc(Nc3nc(Nc4ccc(N5CCN(C)CC5)c(C)c4)ncc3C#N)nc21 (stereo not drawn)
Result: ≥ 7.00

Q: What pIC50 appears in the records for this molecule with PLK1 (Homo sapiens, UniProt P53350)? CCC1(O)CCc2ccc(Nc3nc(Nc4ccc(N5CCN(C)CC5C)cc4)ncc3C#N)nc21 (stereo not drawn)
Result: 6.30 to 6.60

Q: What pIC50 appears in the records for this molecule with PLK1 (Homo sapiens, UniProt P53350)? CN1CCc2cc(Nc3ncc(C#N)c(Nc4cccc(N5CCOC5=O)n4)n3)ccc2C1
Result: < 6.00

Q: What pIC50 appears in the records for this molecule with PLK1 (Homo sapiens, UniProt P53350)? CN1CCN(c2ccc(Nc3ncc(C#N)c(Nc4cccc(N5CCCC5=O)n4)n3)cc2)CC1
Result: 6.30 to 6.60

Q: What pIC50 appears in the records for this molecule with PLK1 (Homo sapiens, UniProt P53350)? CN1CCc2cc(Nc3ncc(C#N)c(Nc4ccc5c(n4)C(C)(O)CC5)n3)ccc2C1(C)C (stereo not drawn)
Result: < 6.00

---

// each record: one item and its IC50 for PLK1 (Homo sapiens)

# example entries with known answers
1) CCC1(O)CCc2ccc(Nc3nc(Nc4cc(C)c5c(c4)CCN(C)C5)ncc3C#N)nc21 (stereo not drawn) [Example 47] = 250 to 500 nM
2) CN1CC2CCC(C1)N2c1ccc(Nc2ncc(C#N)c(Nc3ccc4c(n3)C(C)(O)CC4)n2)cc1 (stereo not drawn) [Example 57] = > 1000 nM
3) CN1CCN(c2ccc(Nc3ncc(C#N)c(Nc4cccc(N5CCCC5=O)n4)n3)cc2)CC1=O [Example 71] = 250 to 500 nM
4) CCC1(O)CCc2ccc(Nc3nc(Nc4ccc(N5C6CCC5CN(C)C6)cc4)ncc3C#N)nc21 (single isomer, unassigned) [Example 38] = 250 to 500 nM
5) CCC1(O)CCc2ccc(Nc3nc(Nc4ccc(N5C6CCC5CN(C)C6)cc4)ncc3C#N)nc21 (stereo not drawn) [Example 36] = > 1000 nM
6) CN1CCC(O)(c2ccc(Nc3ncc(C#N)c(Nc4cccc(N5CCCC5=O)n4)n3)cc2)CC1 [Example 78] = > 1000 nM
7) CCC1(O)CCc2ccc(Nc3nc(Nc4ccc(COC)c(N5CCN(C)CC5)c4)ncc3C#N)nc21 (stereo not drawn) [Example 50] = 100 to 250 nM
8) CN1CCC(c2ccc(Nc3ncc(C#N)c(Nc4cccc(N5CCCC5=O)n4)n3)cc2)CC1=O (stereo not drawn) [Example 67] = > 1000 nM
9) CCC1(O)CCc2ccc(Nc3nc(Nc4ccc(N5CC6CCC(C5)N6C)cc4)ncc3C#N)nc21 (stereo not drawn) [Example 35] = ≤ 100 nM
10) CCC1(O)CCc2ccc(Nc3nc(Nc4ccc(C5CCN(C)CC5)c(Cl)c4)ncc3C#N)nc21 (stereo not drawn) [Example 42] = 100 to 250 nM

# input for lookup
Q: What IC50 appears in the records for this molecule with PLK1 (Homo sapiens)? CCC1(O)CCc2ccc(Nc3nc(Nc4ccc(C5CCN(C)CC5)c(C)c4)ncc3C#N)nc21 (single isomer, unassigned) [Example 21]
Result: ≤ 100 nM

---

Biological target: Wee1 (Homo sapiens, UniProt P30291)
Sequence (P30291 whole entry, species assumed): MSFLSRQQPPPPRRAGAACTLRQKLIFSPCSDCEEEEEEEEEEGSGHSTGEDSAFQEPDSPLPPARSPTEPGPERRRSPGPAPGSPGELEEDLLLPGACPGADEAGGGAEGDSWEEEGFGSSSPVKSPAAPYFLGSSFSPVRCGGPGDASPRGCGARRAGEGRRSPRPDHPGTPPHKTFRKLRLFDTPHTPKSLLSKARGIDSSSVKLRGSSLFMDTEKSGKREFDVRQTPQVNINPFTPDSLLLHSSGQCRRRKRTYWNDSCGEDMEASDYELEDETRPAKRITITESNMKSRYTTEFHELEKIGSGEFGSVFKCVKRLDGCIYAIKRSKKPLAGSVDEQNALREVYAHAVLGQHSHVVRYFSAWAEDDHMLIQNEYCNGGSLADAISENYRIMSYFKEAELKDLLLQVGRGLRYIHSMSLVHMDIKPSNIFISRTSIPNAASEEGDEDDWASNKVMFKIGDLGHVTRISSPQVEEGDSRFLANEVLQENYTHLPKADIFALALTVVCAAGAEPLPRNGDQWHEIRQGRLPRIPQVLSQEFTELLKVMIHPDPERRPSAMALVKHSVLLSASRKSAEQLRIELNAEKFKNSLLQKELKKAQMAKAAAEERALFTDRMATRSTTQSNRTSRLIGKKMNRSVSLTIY
Experiment: Wee1 pCDK1 activity (known assay)
pIC50: −log10 of the molar value.
experimental-endpoint: pIC50

1. CCC1(O)CCc2ccc(Nc3nc(Nc4ccc(C5CCN(C)CC5)c(COC)c4)ncc3C#N)nc21 (stereo not shown) = 6.60 to 7.00
2. CCC1(O)CCc2ccc(Nc3nc(Nc4ccc(C5CCN(C)CC5)c(F)c4)ncc3C#N)nc21 (stereo not shown) = 6.30 to 6.60
3. CCC1(O)CCc2ccc(Nc3nc(Nc4ccc(C5CCN(CCO)CC5)c(C)c4)ncc3C#N)nc21 (stereo not shown) = 6.30 to 6.60

# input for lookup
Q: // pIC50 lookup, key: CN1CCN(c2ccc(Nc3ncc(C#N)c(Nc4cccc(N5CCCC5=O)n4)n3)cc2)CC1
Result: 6.60 to 7.00

---

Molecular target: Wee1 (Homo sapiens, UniProt P30291)
Test: Wee1 pCDK1 activity (known assay)
pIC50: −log10 of the molar value.
List of pIC50 values.

Q: // pIC50 lookup, key: CCC1(O)CCc2ccc(Nc3nc(Nc4cc(C)c(C5CCN(C)CC5)c(F)c4)ncc3C#N)nc21 (stereo not drawn)
Result: 6.60 to 7.00

Q: // pIC50 lookup, key: CCC1(O)CCc2ccc(Nc3nc(Nc4ccc(C5CCN(C)CC5)c(OC)c4)ncc3C#N)nc21 (stereo not drawn)
Result: ≥ 7.00

Q: // pIC50 lookup, key: CCC1(O)CCc2ccc(Nc3nc(Nc4ccc5c(c4)CN(C)CC54CC4)ncc3C#N)nc21 (stereo not drawn)
Result: 6.60 to 7.00

Q: // pIC50 lookup, key: CN1CCN(c2ccc(Nc3ncc(C#N)c(Nc4ccc5c(n4)C(C)(O)CC5)n3)cc2)CC1 (stereo not drawn)
Result: 6.60 to 7.00

Q: // pIC50 lookup, key: CCC1(O)CCc2ccc(Nc3nc(Nc4ccc(COC)c(N5CCN(C)CC5)c4)ncc3C#N)nc21 (stereo not drawn)
Result: 6.00 to 6.30

Q: // pIC50 lookup, key: CCC1(O)CCc2ccc(Nc3nc(Nc4ccc5c(c4)CNCC54CC4)ncc3C#N)nc21 (stereo not drawn)
Result: < 6.00

Q: // pIC50 lookup, key: CCC1(O)CCc2ccc(Nc3nc(Nc4ccc(C5CCN(C)CC5)c(C)c4)ncc3C#N)nc21 (stereo not drawn) [Example 20]
Result: ≥ 7.00

Q: // pIC50 lookup, key: CCC1(O)CCc2ccc(Nc3nc(Nc4ccc(N5C6CCC5CN(C)C6)cc4)ncc3C#N)nc21 (stereo not drawn) [Example 36]
Result: 6.30 to 6.60

Q: // pIC50 lookup, key: CCC1(O)CCc2ccc(Nc3nc(Nc4ccc(N5CC6CCC(C5)N6C)cc4)ncc3C#N)nc21 (stereo not drawn)
Result: 6.60 to 7.00

Q: // pIC50 lookup, key: CCC1(O)CCc2ccc(Nc3nc(Nc4ccc(N5CCN(C)CC5)nc4)ncc3C#N)nc21 (stereo not drawn)
Result: < 6.00

Q: // pIC50 lookup, key: CN1CCC(O)(c2ccc(Nc3ncc(C#N)c(Nc4cccc(N5CCCC5=O)n4)n3)cc2)CC1
Result: < 6.00

Q: // pIC50 lookup, key: CCC1(O)CCc2ccc(Nc3nc(Nc4ccc(N5CCN(C)CC5)c(C)c4)ncc3C#N)nc21 (stereo not drawn)
Result: 6.60 to 7.00

This collection of values is drawn from patent US20240228459A1.
